Data provenance: PubChem BioAssay (NCI)

- Tested on: SW-620 colon
- assay-procedure: NCI tumour cell line growth inhibition, 48 h
reported-property: GI50

SW-620 colon data for `COc1nc2c(c(=O)n1C)CN(c1ccccc1)C(=O)CN2C` ; its GI50: > 100 µM

SW-620 colon data for `O=c1cc(-c2ccccc2)oc2c(O)c(O)ccc12` ; its GI50: 6.66 µM

SW-620 colon data for `O=C1NN(C(=O)c2ccccc2)C(c2ccc(Cl)c(Cl)c2)=C/C1=C\c1ccccc1[N+](=O)[O-]` ; its GI50: 2.27 µM

SW-620 colon data for `COc1cc(/C=C2\C[C@H]3[C@@H]4CC=C5C[C@@H](O)CC[C@]5(C)[C@H]4CC[C@]3(C)[C@H]2O)ccc1OCCN1CCCCC1` ; its GI50: 0.76 µM

SW-620 colon data for `NC(=O)c1ccc(I)c([N+](=O)[O-])c1` ; its GI50: > 100 µM

* * *

- System: COLO 205 colon
- assay-procedure: NCI tumour cell line growth inhibition, 48 h
Label 1 when TGI is at or above 20 µM; anything below gets -1.

Decide: is the reported value of TGI for `Cc1cn(CC2(CO)CCC2)c(=O)[nH]c1=O` equal to or greater than 20 µM?
1

Decide: is the reported value of TGI for `N[C@@H](Cc1c[nH]c2ccccc12)C(=O)NC1CCN(Cc2c[nH]c3ccc(Cl)cc23)CC1` equal to or greater than 20 µM?
-1

Decide: is the reported value of TGI for CC1=C(C(=O)O)N2C(=O)[C@@H](NC(=O)C(c3ccccc3)N3CSC(=S)N(C(C)C)C3)C2SC1 (some centres undefined) equal to or greater than 20 µM?
1

Decide: is the reported value of TGI for `CC(C)(C)OC(=O)NCC(c1c[nH]c2cc(Br)ccc12)c1c[nH]c2cc(Br)ccc12` equal to or greater than 20 µM?
1

Decide: is the reported value of TGI for `O=C(Nc1ccc(Cl)cc1)c1cc(NCc2cc(O)ccc2O)ccc1O` equal to or greater than 20 µM?
1

Decide: is the reported value of TGI for `COc1ccc2c(c1)/C(=C\c1c(-c3ccccc3)nc3sccn13)C(=O)N2` equal to or greater than 20 µM?
1

Decide: is the reported value of TGI for `O=C1NN(C(=O)c2ccccc2)C(c2ccc(Cl)c(Cl)c2)=C/C1=C\c1ccccc1[N+](=O)[O-]` equal to or greater than 20 µM?
-1

Decide: is the reported value of TGI for `CC1(C)CC[C@]2(C(=O)NCCNCCN)CC[C@]3(C)C(=CC[C@@H]4[C@@]5(C)CCC(=O)C(C)(C)[C@@H]5CC[C@]43C)[C@@H]2C1` equal to or greater than 20 µM?
-1

Decide: is the reported value of TGI for `CCOC(=O)c1ccc(NCc2ccc3nc(OC)c(OC)nc3c2)cc1` equal to or greater than 20 µM?
1

Decide: is the reported value of TGI for CCCCC1Nc2ccccc2-c2ccnc(Cl)c21 (centres undefined) equal to or greater than 20 µM?
1

Decide: is the reported value of TGI for CCC(CO)Nc1nc(NCc2ccccc2)c2n[nH]c(C(C)C)c2n1 (centres undefined) equal to or greater than 20 µM?
-1

Decide: is the reported value of TGI for `Cc1ccc([N+](=O)[O-])cc1NC(=O)C(=O)Cc1nc2ccc(C(=O)c3ccccc3)cc2[nH]c1=O` equal to or greater than 20 µM?
1

Decide: is the reported value of TGI for `NCCCNCc1c2ccccc2c(CNCCCN)c2ccccc12` equal to or greater than 20 µM?
1

Decide: is the reported value of TGI for Nc1ccc(C(=O)CC2(O)C(=O)Nc3ccccc32)cc1 (centres undefined) equal to or greater than 20 µM?
1

* * *

- Tested on: SF-295 CNS
- assay-procedure: NCI tumour cell line growth inhibition, 48 h
reported-property: GI50

Just so you know, measured GI50 for `O=C1/C(=C/c2ccc(Cl)cc2)N=C(c2ccccc2)N1c1cc(C(F)(F)F)ccc1Cl` came out at 17.2 µM

Just so you know, measured GI50 for `COc1cc(/C=C2\C(=O)Nc3ccc(Cl)cc32)cc(OC)c1OC` came out at 78.2 µM

Just so you know, measured GI50 for `C[C@]12CC[C@@H]3c4ccc(O)cc4CC[C@H]3[C@@H]1CC(Cc1ccccc1)(Cc1ccccc1)C2=O` came out at 21.4 µM

Just so you know, measured GI50 for `C#Cc1cccc(Nc2nc(C)nc3cc(NC(=O)CCl)ccc23)c1` came out at 3.39 µM

Just so you know, measured GI50 for `COc1cc(-c2n/c(=C\c3c(O)[nH]c4ccccc34)cc3c2=Nc2ccccc2-3)ccc1F` came out at 24.4 µM

Just so you know, measured GI50 for `CCOc1ccc(Nc2ccnc3cc(Cl)ccc23)cc1` came out at 34.4 µM

Just so you know, measured GI50 for `FC(F)(F)c1cccc(Oc2ccc(Nc3ncnc4ccc(OCCCN5CCOCC5)cc34)cc2Cl)c1` came out at 1.75 µM

Just so you know, measured GI50 for CO[C@H]1/C=C/O[C@@]2(C)Oc3c(C)c(O)c4c(O)c(c(/C=N/N5C(C)CN(Cc6ccc(C#N)cc6)CC5C)c(O)c4c3C2=O)NC(=O)/C(C)=C\C=C\[C@H](C)[C@H](O)[C@@H](C)[C@@H](O)[C@@H](C)[C@H](OC(C)=O)[C@@H]1C (stereo partly drawn) came out at 2.88 µM

* * *

I'd appreciate it if you could supply TGI values for the items below.
- Tested on: MCF7 breast
- assay-procedure: NCI tumour cell line growth inhibition, 48 h
Respond numerically; units are µM and should not be typed.

Just so you know, measured TGI for Cn1cnc(SC2=CC(=O)C=C3S[C@H]4C[C@@]23c2c(c(O)c3c5c2=NCCC=5C=N3)N4)c1CC(N)C(=O)O (stereo not given in full) came out at 11.5

Just so you know, measured TGI for Cc1cc(-c2nc3ccc(F)cc3s2)ccc1NC(=O)C(N)CCCCN (stereo not given) came out at 4.46

Just so you know, measured TGI for `CC(=O)CCc1ccc(Oc2c3ccccc3nc3occc23)cc1` came out at 46.3

* * *

- Tested on: MOLT-4 leukemia
- assay-procedure: NCI tumour cell line growth inhibition, 48 h
reported-property: TGI

Just so you know, measured TGI for `CCOP(=O)(OCC)/C(=C\n1ccc(=O)[nH]c1=S)C(=O)OC` came out at > 100 µM

Just so you know, measured TGI for `Fc1ccccc1-c1cc(=S)c2cc3c(cc2[nH]1)OCO3` came out at > 25.1 µM

Just so you know, measured TGI for `CN1/C(=C\N=O)C(C)(C)N(O)C1(C)C` came out at > 100 µM

Just so you know, measured TGI for `COc1ccc(Cc2ccc3[nH]c(=O)cc(C)c3c2)cc1S(=O)(=O)O` came out at > 100 µM

Just so you know, measured TGI for `COC(=O)Cc1cccc2c(=O)c(S(=O)(=O)NC(=O)Nc3ccc(Cl)cc3)c(-c3ccccc3)oc12` came out at > 100 µM

Just so you know, measured TGI for CCC(CO)Nc1nc(NCc2ccccc2)c2n[nH]c(C(C)C)c2n1 (stereo not given) came out at 46.3 µM

Just so you know, measured TGI for `COc1c(C)c(C/C=C(\C)CC/C=C(\C)CC/C=C(\C)CC/C=C(\C)CCC=C(C)C)c(OC)c(OC)c1OC` came out at > 100 µM

Just so you know, measured TGI for `COc1cc(OCCCN2CCCC2)ccc1Nc1ncc(Cl)c(Nc2ccccc2P(C)(C)=O)n1` came out at 26 µM

Just so you know, measured TGI for CC1=C(C(=O)O)N2C(=O)[C@@H](NC(=O)C(c3ccccc3)N3CSC(=S)N(C(C)C)C3)C2SC1 (stereo not given in full) came out at > 100 µM

Just so you know, measured TGI for `COc1cccc(/C=C2\N=C(Cl)OC2=O)c1O` came out at > 100 µM

* * *

- System: A498 renal
- assay-procedure: NCI tumour cell line growth inhibition, 48 h
reported-property: TGI

Just so you know, measured TGI for `COc1ccc2c(c1)C(=O)/C(=C/c1ccc(O)cc1)O2` came out at 49.3 µM

Just so you know, measured TGI for `C[C@H](CCC(=O)O)[C@H]1CC[C@H]2[C@@H]3[C@@H](O)C[C@@H]4C[C@H](O)CC[C@]4(C)[C@H]3C[C@H](O)[C@]12C` came out at > 100 µM

Just so you know, measured TGI for CC[C@@]1(O)C(=O)OCc2c1cc1n(c2=O)Cc2c-1nc1ccccc1c2/C=N\NC(=O)C(N)Cc1ccc(O)cc1 (some centres not stated) came out at 3.65 µM

Just so you know, measured TGI for `CCCNC(=O)Cn1c2c(c3ccccc31)CCCC2` came out at > 100 µM

Just so you know, measured TGI for Cc1cc(-c2nc3ccc(F)cc3s2)ccc1NC(=O)C(N)CCCCN (configuration not stated) came out at 24 µM

Just so you know, measured TGI for `O=C(N/N=C\c1ccc(N(CCCl)CCCl)cc1)c1cccnc1` came out at > 100 µM

Just so you know, measured TGI for `O=C1NCN(c2ccccc2)C12CCN(CCCN1CCN(CCOC(c3ccccc3)c3ccccc3)CC1)CC2` came out at 6.55 µM

Just so you know, measured TGI for O=C1C2CCCC2N1Cc1ccccc1 (configuration not stated) came out at > 100 µM

Just so you know, measured TGI for COc1nc(NC2OC(COC(C)=O)C(OC(C)=O)C(OC(C)=O)C2OC(C)=O)c(N=C(C)C(C)=O)c(=O)n1C (configuration not stated) came out at > 100 µM

Just so you know, measured TGI for CC1CN=C(N(C(=O)Nc2ccc(Cl)cc2)c2cccc(Cl)c2)S1 (configuration not stated) came out at 91.8 µM

Just so you know, measured TGI for `CCOC(=O)C(=CNc1ccc(S(N)(=O)=O)cc1)C(=O)OCC` came out at > 100 µM

Just so you know, measured TGI for `Cc1ccc(N2C=Nn3c(nc4sc5c(c4c3=O)CCCC5)C2)cc1` came out at > 100 µM

Just so you know, measured TGI for `O=C(NC1CCCCC1)NC12CC3CC(CC(F)(C3)C1)C2` came out at > 100 µM

Just so you know, measured TGI for CON1C(=O)C2(CCCCC2)C(=O)C12C=CC(C)CC2 (configuration not stated) came out at > 100 µM

Just so you know, measured TGI for `CC(C)(C)n1[nH]c(=O)n(C(C)(C)C)c1=O` came out at > 100 µM

Just so you know, measured TGI for `O=P(O)(O)c1ccc2c(c1)OCCOCCOCCOCCO2` came out at > 100 µM

Just so you know, measured TGI for `CSc1nc2nccnc2c(=O)[nH]1` came out at > 100 µM

Just so you know, measured TGI for `COC(Cc1cc(C(O)(c2ccc(C(C)(C)C)cc2)c2cc(CC(OC)(c3cc(C(OC)(c4ccc(C(C)(C)C)cc4)c4ccc(C(C)(C)C)cc4)c(C)cc3C)c3cc(C(OC)(c4ccc(C(C)(C)C)cc4)c4ccc(C(C)(C)C)cc4)c(C)cc3C)c(C)cc2C)c(C)cc1C)(c1cc(C(OC)(c2ccc(C(C)(C)C)cc2)c2ccc(C(C)(C)C)cc2)c(C)cc1C)c1cc(C(OC)(c2ccc(C(C)(C)C)cc2)c2ccc(C(C)(C)C)cc2)c(C)cc1C` came out at > 75 µM

Just so you know, measured TGI for `FC(F)(F)c1cccc(Oc2ccc(Nc3ncnc4ccc(OCCCN5CCOCC5)cc34)cc2Cl)c1` came out at 12.8 µM

Just so you know, measured TGI for `Cc1ccc(NC(=O)C(=O)C2C(=O)NC(=O)NC2=O)c(C)c1` came out at > 100 µM

Just so you know, measured TGI for Cc1cc(OP2(=O)NCc3ccncc3O2)ccc1Cl (configuration not stated) came out at > 100 µM

Just so you know, measured TGI for CC1CCCc2c1n[nH]c2CC1CC(=O)NC(=O)C1 (configuration not stated) came out at > 100 µM

Just so you know, measured TGI for `N#Cc1ccc2[nH]cc(Cc3c[nH]c4ccc(C#N)cc34)c2c1` came out at 22 µM

Just so you know, measured TGI for `COC(=O)[C@@H](C)C[C@H](Cc1ccccc1)NC(=O)c1csc([C@@H](C[C@H](C(C)C)N(C)C(=O)[C@@H](NC(=O)[C@H]2CCCCN2C)c2ccc(F)cc2)OC(C)=O)n1` came out at > 100 µM

Just so you know, measured TGI for `CCCCCCCCCCCCCCCCCC1=NC(C)(C)CN1C(C)(C)CO` came out at 31.2 µM

Just so you know, measured TGI for `CC(=O)CCc1ccc(Oc2c3ccccc3nc3occc23)cc1` came out at 29.2 µM

Just so you know, measured TGI for `O=C(O)c1nn(-c2ccc(Cl)cc2)c2c1C(=O)c1ccccc1C2=O` came out at > 100 µM

Just so you know, measured TGI for `Brc1ccc2nc(-c3cccs3)nc(N3CCN(c4ccccc4)CC3)c2c1` came out at > 100 µM

Just so you know, measured TGI for `COc1cc(/C=C/C(=O)c2ccccc2O)ccc1OCCCOc1cc2c(cc1OC)C(=O)N1CCC[C@H]1C=N2` came out at 0.319 µM

Just so you know, measured TGI for `COc1ccc(NC(=O)c2ccc(C(F)(F)F)nc2Nc2ccc(Cl)cc2C)cc1Cl` came out at 17.5 µM

Just so you know, measured TGI for COC(=O)CC(C(C(=O)OCc1ccccc1)C(C)O)N1C(=O)OCC1c1ccccc1 (configuration not stated) came out at > 100 µM

Just so you know, measured TGI for `CC1(C)CC[C@]2(C(=O)NCCNCCN)CC[C@]3(C)C(=CC[C@@H]4[C@@]5(C)CCC(=O)C(C)(C)[C@@H]5CC[C@]43C)[C@@H]2C1` came out at 23.6 µM

Just so you know, measured TGI for `CC(=O)OCCCCn1nncc1Cn1ccc(=O)n(Cc2cnnn2CCCCOC(C)=O)c1=O` came out at > 100 µM

Just so you know, measured TGI for `Cc1ccc(F)c2[nH]c(-c3ccccc3)cc(=O)c12` came out at > 100 µM

Just so you know, measured TGI for Cc1ccc(S(=O)(=O)NC(Cc2ccccc2)C(=O)CCl)cc1 (configuration not stated) came out at 31.7 µM

Just so you know, measured TGI for `Oc1ccc(Br)cc1C=NC1CCCCC1` came out at > 100 µM

Just so you know, measured TGI for CN1C(c2ccccc2)CC(=NO)CC1c1ccccc1 (configuration not stated) came out at > 100 µM
